# Population Membrane Permeable-Phenotype (%) per record follows
system: Fibroblast; test: Multiplex assay against human fibroblast; assay type: toxicity, cell-based; conditions: 48 h, 1 µM, compound concentration 1 uM, replicate 1
Property label: Population Membrane Permeable-Phenotype (%)

Compound	Unit name	Data value
Cc1c[nH]c2nccc(Oc3c(F)cc(Nc4cc(Cl)nc(N)n4)cc3F)c12 [BAY-549]	%	13
CC(C)OC(=O)N1CCC(Oc2ncnc3c2cnn3-c2ccc(S(C)(=O)=O)cc2F)CC1	%	28
C[C@]12CC[C@@H]3c4ccc(O)cc4CC[C@H]3[C@@H]1CC[C@@H]2O [ESTRADIOL]	%	26
COC(=O)C1=C(C)NC(C)=C(C(=O)OCCCN2CCC(c3ccccc3)(c3ccccc3)CC2)[C@H]1c1cccc([N+](=O)[O-])c1 [NIGULDIPINE]	%	1

* * *

tested on: U2OS; assay: Multiplex assay against U2OS; assay type: toxicity, cell-based; conditions: human, 12 h, 1 µM, compound concentration 1 uM, replicate 2
# Population Membrane Permeable-Phenotype (%) per record follows
Property label: Population Membrane Permeable-Phenotype (%)

Molecule	Data value
O=C(c1cc2c(cc1F)OC(c1ccc(F)cc1)(c1ccc(Cl)cc1Cl)O2)N1CCOCC1 (centres undefined)	9%
COc1cc(Nc2nccc(-c3cnn4nc(OC)ccc34)n2)cc(C(F)(F)F)c1	2%
CCCSc1nc(N[C@@H]2C[C@H]2c2ccc(F)c(F)c2)c2nnn([C@@H]3C[C@H](OCCO)[C@@H](O)[C@H]3O)c2n1	5%
CC(C)(C)NC[C@H](O)COc1nsnc1N1CCOCC1	8%

* * *

# Population Hoechst High Intensity Objects (%) per record follows
tested on: Fibroblast; experiment: Multiplex assay against human fibroblast; format: toxicity, cell-based; settings: 24 h, 1 µM, compound concentration 1 uM, replicate 1
Property label: Population Hoechst High Intensity Objects (%)

Compound	Unit name	Data value
C=CC(=O)Nc1cccc(Oc2nc(Nc3ccc(N4CCN(C)CC4)cc3OC)ncc2Cl)c1	%	47
COc1ccccc1CN[C@H]1C2CCN(CC2)[C@H]1C(c1ccccc1)c1ccccc1	%	15
CCc1ccc(OCc2ccccc2C(=O)Nc2ccc3nc(C)cc(N)c3c2)cc1.Cl	%	13
O=c1[nH]c2ccccc2n1C1CCN(Cc2ccc(-c3[nH]c4cc5ncnc5cc4nc3-c3ccccc3)cc2)CC1	%	20
CC(C)NC(=O)N1CC[C@H](NC2=Nc3cc(F)ccc3N(CC(F)F)c3ccc(Cl)cc32)C1	%	9
CCc1nn(CCCN2CCN(c3cccc(Cl)c3)CC2)c(=O)n1CCOc1ccccc1.Cl [NEFAZODONE HYDROCHLORIDE]	%	14
Cc1ccc(C)c(Oc2ccncc2C(=O)N2CCN(C3CC3)c3ccccc32)c1	%	19
CC(C)c1noc(N2CCC(COc3ccc(-c4ccc(S(C)(=O)=O)cc4)nc3)CC2)n1	%	8

* * *

tested on: U2OS; assay: Multiplex assay against U2OS; format: toxicity, cell-based; conditions: human, 12 h, 1 µM, compound concentration 1 uM, replicate 2
Label criterion met when Population Mitochondria Different-Phenotype (%) is at or above 20%; anything below gets criterion not met.

Molecule	Target of assay	Classification
CCC1=C[C@@H]2C[N@](C1)Cc1c([nH]c3ccccc13)[C@@](C(=O)OC)(c1cc3c(cc1OC)N(C)[C@H]1[C@@](O)(C(=O)OC)[C@H](OC(C)=O)[C@]4(CC)C=CCN5CC[C@]31[C@@H]54)C2.O=C(O)C(O)C(O)C(=O)O.O=C(O)C(O)C(O)C(=O)O [VINORELBINE TARTRATE]	U2OS	criterion met
Cc1ccc2c(c1)c1c(n2CCc2ccc(C)nc2)CCN(C)C1 [LATREPIRDINE]	U2OS	criterion met
CC(C)(C)NC[C@H](O)COc1nsnc1N1CCOCC1	U2OS	criterion not met
CCc1ccc(OCc2ccccc2C(=O)Nc2ccc3nc(C)cc(N)c3c2)cc1.Cl	U2OS	criterion met
Cc1cccc(CN2CCN(C(c3ccccc3)c3ccc(Cl)cc3)CC2)c1.Cl.Cl (stereo not drawn)	U2OS	criterion met
Cl.O=C(O)c1cc(-c2ccc(C3CCNCC3)cc2)c2ccc(-c3ccc(C(F)(F)F)cc3)cc2c1	U2OS	criterion not met
COC(=O)C1=C(C)NC(C)=C(C(=O)OCCCN2CCC(c3ccccc3)(c3ccccc3)CC2)[C@H]1c1cccc([N+](=O)[O-])c1	U2OS	criterion met
C=CC(=O)Nc1cccc(Oc2nc(Nc3ccc(N4CCN(C)CC4)cc3OC)ncc2Cl)c1	U2OS	criterion met
COc1ccccc1CN[C@H]1C2CCN(CC2)[C@H]1C(c1ccccc1)c1ccccc1	U2OS	criterion not met
C[C@]12CC[C@@H]3c4ccc(O)cc4CC[C@H]3[C@@H]1CC[C@@H]2O	U2OS	criterion not met
C=CC(=O)Nc1ccc2[nH]c(=O)n(C3CCN(Cc4ccc(-c5nc6cc[nH]c(=O)c6cc5-c5ccccc5)cc4)CC3)c2c1	U2OS	criterion met
CCCSc1nc(N[C@@H]2C[C@H]2c2ccc(F)c(F)c2)c2nnn([C@@H]3C[C@H](OCCO)[C@@H](O)[C@H]3O)c2n1	U2OS	criterion not met
CNC(=O)Nc1ccc2c(c1)[C@@]1(CC2)OC(=O)N(CC(=O)N(Cc2ccc(F)cc2)[C@@H](C)C(F)(F)F)C1=O	U2OS	criterion not met
